Cited source: paper doi:10.1101/2021.09.17.460839

Molecular target: Rv0792c (Mycobacterium tuberculosis)
Sequence: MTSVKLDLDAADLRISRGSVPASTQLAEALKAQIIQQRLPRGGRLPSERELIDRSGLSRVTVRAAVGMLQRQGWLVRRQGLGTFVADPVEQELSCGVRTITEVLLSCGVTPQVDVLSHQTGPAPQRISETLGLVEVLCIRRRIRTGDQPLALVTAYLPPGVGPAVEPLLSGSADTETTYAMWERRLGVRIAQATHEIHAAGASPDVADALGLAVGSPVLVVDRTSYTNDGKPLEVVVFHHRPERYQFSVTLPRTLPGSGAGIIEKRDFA
Assay: ALISA
measurement_name: pKd
# log scale: pKd equals minus log10 of the concentration in mol/L

Determine its reported pKd: TCTAGTCATTCGTCATAATCCCATCTGTTTCTTCCTCCTTCCGT [Rv0792c_2 aptamer (printed Rv0729c_2)]
7.29
